Hi there, I'd appreciate the recorded solubility kinetic for every entry that follows.
condition-set: buffer; pH 7.4; 200.0 µM

// solved cases for solubility kinetic follow
O=C(CSc1ccccc1Cl)N1CCOCC1 ... > 40.8 µg/mL
COc1ccccc1NC(=O)CC1CCCC1 ... > 35 µg/mL

Dear colleague, could you send me solubility kinetic for each of the items below? Thanks.
1. O=C(NCCN1CCOCC1)c1cc2ccccc2oc1=O
2. CCOc1ccc(NC(=O)CCS(=O)(=O)c2ccc(C)cc2)cc1

Completion:
1. > 45.3 µg/mL
2. > 52.1 µg/mL

Dear colleague, could you send me solubility kinetic for each of the items below? Thanks.
1. Cc1ccccc1OCC(=O)Nc1ccncc1
2. O=C(C[n+]1ccc2ccccc2c1)c1ccccc1.[Br-]
3. CN(Cc1ccccc1)C(=O)COc1ccc2ccccc2c1

Completion:
> 36.3 µg/mL
> 49.2 µg/mL
< 0.7 µg/mL

Dear colleague, could you send me solubility kinetic for each of the items below? Thanks.
1. CCOc1ccc(NC(=O)c2ccc(Cl)c(NC(=O)c3ccco3)c2)cc1
2. CCCCCCC(=O)Nc1ccc(S(=O)(=O)Nc2onc(C)c2C)cc1
3. CCCC(=O)c1cc2c(cc1NC(=O)c1ccccc1F)OCCO2
4. Cl.O=C(NC12CC3CC(CC(C3)C1)C2)OCCNC1CCCCC1

Completion:
< 0.4 µg/mL
> 56.9 µg/mL
< 0.7 µg/mL
> 53.5 µg/mL

---

Hi there, I'd appreciate the recorded solubility kinetic for every entry that follows.
condition-set: buffer; pH 7.4; 200.0 µM

O=C(OCC(=O)N1CCCC1)c1cccc(Br)c1 ... > 46.8 µg/mL
CCc1ccccc1NC(=O)CC(=O)Nc1ccccc1CC ... > 46.6 µg/mL
COc1ccc(C(=O)NCc2ccc(C(=O)O)o2)cc1 ... > 41.3 µg/mL
O=C(Nc1nc2cc3c(cc2s1)OCO3)C1CC1 ... < 0.3 µg/mL

Dear colleague, could you send me solubility kinetic for each of the items below? Thanks.
1. CC(C)(C)c1ccc(C(=O)NCCCNC(=O)c2ccccn2)cc1
2. OCc1nc2ccccc2n1CCOc1ccccc1
3. Cc1nc2ccccc2c(=O)n1-c1ccc(-c2ccccc2)cc1

Completion:
1. > 50.9 µg/mL
2. > 40.2 µg/mL
3. < 0.3 µg/mL

Dear colleague, could you send me solubility kinetic for each of the items below? Thanks.
1. Cc1cccc(-c2nnc(SCC(=O)N3CCCC3)o2)c1
2. O=C(Nc1ccc(F)cc1F)NC1CCCCCCC1

Completion:
["> 45.5 µg/mL", "1.9 µg/mL"]

Dear colleague, could you send me solubility kinetic for each of the items below? Thanks.
1. COc1ccc2c(c1)c(CC(=O)OCC(=O)O)c(C)n2C(=O)c1ccc(Cl)cc1
2. O=C(c1cc(S(=O)(=O)N2CCOCC2)ccc1Cl)N1CCCCC1CO (stereo not given)
3. O=c1cc(N2CCCC2)c2ccccc2o1
4. O=C(COC(=O)C1CC2CCCC(C1)C2=O)Nc1ccccc1 (stereo not given)
5. COc1ccccc1NC(=O)NCCc1c[nH]c2ccccc12

Completion:
["> 62.4 µg/mL", "> 60.4 µg/mL", "> 32.3 µg/mL", "46.5 µg/mL", "41.1 µg/mL"]

Dear colleague, could you send me solubility kinetic for each of the items below? Thanks.
1. CC1CCC(N(C)C2CCN(C)CC2)CC1 (stereo not given)
2. O=C(/C=C/c1ccco1)NCCCN1CCOCC1
3. COc1ccc(C(=O)N2CCCc3ccccc32)cc1OC
4. Cc1ccc2c(c1)N(Cc1cccc(C#N)c1)C=NS2(=O)=O
5. CC1=C/C(=N\OS(=O)(=O)c2ccccc2)C(C)=CC1=O
6. CC(Cl)C(=O)c1c[nH]c2ccccc12 (stereo not given)

Completion:
1: 22.4 µg/mL; 2: > 39.6 µg/mL; 3: 32.4 µg/mL; 4: 8.1 µg/mL; 5: 6.4 µg/mL; 6: 21.4 µg/mL
